# Lookup of reported IC50 keyed by entry
target: dopamine receptor (Rattus norvegicus, UniProt P61169); construct: the caudate nucleus is quickly dissected out; from tissue; host or cells: caudate nucleus of male Hooded Lister rats, homogenate; assay: In vitro displacement of radiolabelled spiroperidol from dopamine receptor membranes; type: binding, rat (Male Hooded Lister); conditions: 0.5 nM [3H]-spiroperidol; rat caudate nucleus membranes; read-out: I(c) Spiroperidol Displacement ED50 (concentration for 50% displacement)
Sequence (P61169 whole entry): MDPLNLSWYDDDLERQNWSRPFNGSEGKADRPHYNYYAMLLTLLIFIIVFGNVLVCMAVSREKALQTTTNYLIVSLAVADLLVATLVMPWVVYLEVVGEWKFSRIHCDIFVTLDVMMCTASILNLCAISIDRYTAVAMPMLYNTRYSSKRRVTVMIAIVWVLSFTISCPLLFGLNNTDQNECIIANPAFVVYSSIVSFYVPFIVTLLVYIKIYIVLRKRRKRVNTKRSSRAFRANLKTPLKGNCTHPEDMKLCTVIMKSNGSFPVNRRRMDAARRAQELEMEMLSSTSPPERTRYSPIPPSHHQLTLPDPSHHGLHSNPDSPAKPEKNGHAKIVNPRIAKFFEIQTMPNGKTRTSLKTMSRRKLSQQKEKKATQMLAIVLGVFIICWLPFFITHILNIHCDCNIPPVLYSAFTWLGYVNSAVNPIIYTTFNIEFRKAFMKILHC
Endpoint name: IC50 (nM)

>  <Smiles entry>
COc1cc(N)c(Cl)cc1C(=O)N[C@@H]1C[C@H]2CC[C@@H](C1)N2CCc1ccccc1

>  <Measurement unit>
nM

>  <Numeric readout>
600

$$$$
>  <Smiles entry>
CCCCN1[C@@H]2CC[C@H]1C[C@H](NC(=O)c1cc(Cl)c(N)cc1OC)C2

>  <Measurement unit>
nM

>  <Numeric readout>
400

$$$$

###

tested on: Dopamine Receptor; test: Inhibition of apomorphine induced stereotype behaviour in the rat; type: in vivo; settings: s.c., apomorphine induced, complete inhibition, IA(x) = inactive at dose in brackets
Endpoint name: I(a) Dose Inhibiting Stereotype Behaviour (dose for complete inhibition)

>  <Compound>
COc1cc(N)c(Cl)cc1C(=O)N[C@@H]1C[C@H]2CCC[C@@H](C1)N2Cc1ccccc1 [Compound 12]

>  <Assayed system>
Dopamine Receptor

>  <Result>
0.5 mg/kg

$$$$
>  <Compound>
COc1cc(N)c(Cl)cc1C(=O)NC1CC2CCC(C1)N2Cc1ccccc1 (centres unmarked) [Compound 2]

>  <Assayed system>
Dopamine Receptor

>  <Result>
10 mg/kg

$$$$
>  <Compound>
COc1cc(N)c(Cl)cc1C(=O)N[C@H]1C[C@H]2CCC[C@@H](C1)N2C [Compound 21]

>  <Assayed system>
Dopamine Receptor

>  <Result>
IA(50)

$$$$
>  <Compound>
CCCN1[C@@H]2CC[C@H]1C[C@H](NC(=O)c1cc(Cl)c(N)cc1OC)C2 [Compound 24]

>  <Assayed system>
Dopamine Receptor

>  <Result>
IA(25)

$$$$
>  <Compound>
COc1cc(N)c(Cl)cc1C(=O)N[C@@H]1C[C@H]2CC[C@@H](C1)N2CCc1ccccc1 [Compound 18]

>  <Assayed system>
Dopamine Receptor

>  <Result>
IA(50)

$$$$
>  <Compound>
COc1cc(N)c(Cl)cc1C(=O)N[C@H]1C[C@H]2CC[C@@H](C1)N2Cc1ccccc1 [Compound 3]

>  <Assayed system>
Dopamine Receptor

>  <Result>
50 mg/kg

$$$$
>  <Compound>
CCN1[C@@H]2CC[C@H]1C[C@H](NC(=O)c1cc(Cl)c(N)cc1OC)C2 [Compound 23]

>  <Assayed system>
Dopamine Receptor

>  <Result>
IA(25)

$$$$
>  <Compound>
COc1cc(N)c(Cl)cc1C(=O)N[C@@H]1C[C@H]2CC[C@@H](C1)N2Cc1ccccc1 [Compound 5]

>  <Assayed system>
Dopamine Receptor

>  <Result>
0.05 mg/kg

$$$$
>  <Compound>
COc1cc(N)c(Cl)cc1C(=O)N[C@@H]1C[C@H]2CC[C@@H](C1)N2C(C)C [Compound 25]

>  <Assayed system>
Dopamine Receptor

>  <Result>
IA(25)

$$$$
>  <Compound>
COc1cc(N)c(Cl)cc1C(=O)N[C@H]1C[C@H]2CCC[C@@H](C1)N2Cc1ccccc1 [Compound 11]

>  <Assayed system>
Dopamine Receptor

>  <Result>
IA(50)

$$$$
>  <Compound>
COc1cc(N)c(Cl)cc1C(=O)N[C@@H]1C[C@H]2CCC[C@@H](C1)N2C [Compound 22]

>  <Assayed system>
Dopamine Receptor

>  <Result>
IA(25)

$$$$
>  <Compound>
COc1cc(N)c(Cl)cc1C(=O)N[C@@H]1C[C@H]2CC[C@@H](C1)N2C [Compound 19]

>  <Assayed system>
Dopamine Receptor

>  <Result>
IA(25)

$$$$
>  <Compound>
COc1cc(N)c(Cl)cc1C(=O)N(C)[C@H]1C[C@H]2CC[C@@H](C1)N2Cc1ccccc1 [Compound 6]

>  <Assayed system>
Dopamine Receptor

>  <Result>
IA(50)

$$$$

###

molecular target: dopamine receptor (Rattus norvegicus, UniProt P61169); construct: the caudate nucleus is quickly dissected out; from tissue; host or cells: caudate nucleus of male Hooded Lister rats, homogenate; assay: In vitro displacement of radiolabelled spiroperidol from dopamine receptor membranes; format: binding, rat (Male Hooded Lister); conditions: 0.25 h; 10^-5 M compound; 0.5 nM [3H]-spiroperidol; rat caudate nucleus membranes; read-out: I(c) Spiroperidol Displacement % at 10^-5 M

>  <Smiles entry>
COc1cc(N)c(Cl)cc1C(=O)N[C@@H]1C[C@H]2CCC[C@@H](C1)N2Cc1ccccc1

>  <Assayed system>
dopamine receptor (Rattus norvegicus, UniProt P61169)

>  <Measurement unit>
%

>  <inhibition at 10 µM>
53

$$$$
>  <Smiles entry>
COc1cc(N)c(Cl)cc1C(=O)N[C@@H]1C[C@H]2CC[C@@H](C1)N2C

>  <Assayed system>
dopamine receptor (Rattus norvegicus, UniProt P61169)

>  <Measurement unit>
%

>  <inhibition at 10 µM>
64

$$$$
>  <Smiles entry>
COc1cc(N)c(Cl)cc1C(=O)N[C@@H]1C[C@H]2CC[C@@H](C1)N2Cc1ccc(C)cc1

>  <Assayed system>
dopamine receptor (Rattus norvegicus, UniProt P61169)

>  <Measurement unit>
%

>  <inhibition at 10 µM>
54

$$$$
>  <Smiles entry>
CCCCN1[C@@H]2CC[C@H]1C[C@@H](NC(=O)c1cc(Cl)c(N)cc1OC)C2

>  <Assayed system>
dopamine receptor (Rattus norvegicus, UniProt P61169)

>  <Measurement unit>
%

>  <inhibition at 10 µM>
66

$$$$
